Molecular target: T1, Peptide 1 (amino acid position 1-28 of the human CCR6) (human, biotinylated)
T1 construct: also called first 28 AA
T1 peptide: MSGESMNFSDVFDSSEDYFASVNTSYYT
Test: ELISA, biotinylated peptide on a streptavidin-coated plate
measured_attribute: binding result

mouse AB6 mAb (antibody, V domains shown, Mouse hybridoma antibody, isotype IgG2b; also called mAB6; AB6-K5) VH: EVKLVESGGGLVQPGGSLKLSCAASGFPFSDYYLYWVRQTPEKRLEWVAYITNGVGRTYYSDSVKGRFTISRDNAKNTLYLQMSRLKSEDTSMYYCTSPPLGGAWFAYWGQGTLVTVS VL: DVLMTQTPLSLPVSLGDQASISCRSSQSIVHSNGNTYLEWYLQKPGQSPKLLIYKVSKRFSGVPDRFSGSGSGTDFTLKISRVEAEDLGVYYCFQGSHVPLTFGAGTKLELKR :: binds
AB2 (antibody, V domains shown, Mouse hybridoma antibody, isotype IgG1; also called AB2-O17) VH: EVNLVESGGGLVQPGGSLKLSCEASGFSFSDYYMYWVRQTPEKRLEWVTYITNGGGRTYYSDTIRGRFTISRDNARNTLYLQMSRLKSEDTAMYYCTSPPLGGAWFGYWGQGTLVTVS VL: DVSMTQTPLSLPVSLGDQASISCRSSQSLVHSNGNTYLEWYLQKPGQSPKLLIYKVSKRFSGVPDRFSGSGSGTDFTLKISRVEAEDLGVYYCFQGSHVPLTFGAGTKLELKR :: binds
AB11 (antibody, V domains shown, Mouse hybridoma antibody, isotype IgG1; also called AB11-M9) VH: EVNLVESGGGLVQPGGSLILSCEASGFSFSDYYMYWVRQTPEKRLEWVTYITNGGGRTYYSDAIRGRFTISRDNARNTLYLQMSRLKSEDTAMYYCTSPPLGGAWFGYWGQGTLVTVS VL: DVSMTQTPLSLPVSLGDQASISCRSSQSLVHSNGNTYLEWYLQKPGQSPKLLIYKVSKRFSGVPDRFSGSGSGTDFTLKISRVEAEDLGVYYCFQGSHVPLTFGAGTKLELKR :: binds
